tested on: 556581-035-R-J1-PDC complex spheroid growth; test: Anticancer human tumor 556581-035-R-J1-PDC patient-derived ovarian carcinoma cell line growth inhibition [AhR]; settings: second compound 0.316 µM; first compound 1 µM; active compounds read low
viability, T/C: recorded values
Lab book: enter the figure in %, no units written.

Reference set, count: 4
[[record]]
molecule = "CC1(C)CCC(CN2CCN(c3ccc(C(=O)NS(=O)(=O)c4ccc(NCC5CCOCC5)c([N+](=O)[O-])c4)c(Oc4cnc5[nH]ccc5c4)c3)CC2)=C(c2ccc(Cl)cc2)C1 + Cc1cncc(-c2nc(NCCc3c[nH]c4ccccc34)c3ncn(C(C)C)c3n2)c1"
measure = "viability, T/C"
numeric_result = 95.1

[[record]]
molecule = "Nc1ccn(C2OC(CO)C(O)C2(F)F)c(=O)n1 (stereo not given) + Cc1cncc(-c2nc(NCCc3c[nH]c4ccccc34)c3ncn(C(C)C)c3n2)c1"
measure = "viability, T/C"
numeric_result = 37.6

[[record]]
molecule = "COc1cc(Nc2ncc3c(n2)-c2ccc(Cl)cc2C(c2c(F)cccc2OC)=NC3)ccc1C(=O)O + Cc1cncc(-c2nc(NCCc3c[nH]c4ccccc34)c3ncn(C(C)C)c3n2)c1"
measure = "viability, T/C"
numeric_result = 76.8

[[record]]
molecule = "CC1COCCN1c1cc(C2(S(C)(=N)=O)CC2)nc(-c2ccnc3[nH]ccc23)n1 (stereo not given) + CC(CO)NC(=O)c1cc(-c2ccc(Cl)cc2)nn(-c2cnn(C)c2)c1=O"
measure = "viability, T/C"
numeric_result = 90.1


Let's switch to this molecule now.
### Prompt Reported viability, T/C for CC1(C)CCC(CN2CCN(c3ccc(C(=O)NS(=O)(=O)c4ccc(NCC5CCOCC5)c([N+](=O)[O-])c4)c(Oc4cnc5[nH]ccc5c4)c3)CC2)=C(c2ccc(Cl)cc2)C1 + Cc1ccccc1N=Nc1ccc(NC(=O)c2ccnn2C)c(C)c1 : what is it?
### Response 99.6

###

system: 556581-035-R-J1-PDC complex spheroid growth; assay: Anticancer human tumor 556581-035-R-J1-PDC cell line growth inhibition [AhR]; conditions: second compound 10 µM; first compound 0.1 µM; active compounds read low;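 note: compound exposure lasted 7 days; 100% = DMSO vehicle control growth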
measure: viability, T/C (%)
Lab book: enter the figure in %, no units written.

[[record]]
compound = "CC(C)c1c(-c2ccccc2)nc2c(C#N)c[nH]n2c1=O + Cc1ccccc1N=Nc1ccc(NC(=O)c2ccnn2C)c(C)c1"
numeric_result = 86.8

[[record]]
compound = "NS(=O)(=O)OCC1CC(n2ccc3c(NC4CCc5ccccc54)ncnc32)CC1O (stereo unspecified) + Cc1ccccc1N=Nc1ccc(NC(=O)c2ccnn2C)c(C)c1"
numeric_result = 80


### Prompt Reported viability, T/C for O=C(c1cc(Cc2n[nH]c(=O)c3ccccc23)ccc1F)N1CCN(C(=O)C2CC2)CC1 + Cc1ccccc1N=Nc1ccc(NC(=O)c2ccnn2C)c(C)c1 : what is it?
### Response 82.3

### Prompt Reported viability, T/C for COc1cc(C2c3cc4c(cc3C(OC3OC5COC(C)OC5C(O)C3O)C3COC(=O)C23)OCO4)cc(OC)c1O (stereo unspecified) + Cc1cncc(-c2nc(NCCc3c[nH]c4ccccc34)c3ncn(C(C)C)c3n2)c1 : what is it?
### Response 76.8

### Prompt Reported viability, T/C for CC1COCCN1c1cc(-c2ccnn2C)c2ccnc(-c3ccn[nH]3)c2n1 (stereo unspecified) + Cc1ccccc1N=Nc1ccc(NC(=O)c2ccnn2C)c(C)c1 : what is it?
### Response 73.3

### Prompt Reported viability, T/C for COc1cc(Nc2ncc3c(n2)-c2ccc(Cl)cc2C(c2c(F)cccc2OC)=NC3)ccc1C(=O)O + CC(CO)NC(=O)c1cc(-c2ccc(Cl)cc2)nn(-c2cnn(C)c2)c1=O : what is it?
### Response 80.8
